Sourced from patent US20100016298A1

Can you tell me GI50 for the items I'm about to list?
SYSTEM_TESTED: Ba/F3 cells expressing the p210Bcr-Abl-T315I theramutein (Homo sapiens, UniProt P00519, T315I, cells depend on it)
Construct: IC50 activity category, T315I; T315I cell line; even at 10 μM concentration; fused on or other part: P11274 (Breakpoint cluster region protein)
MEASUREMENT_PROTOCOL: cellular assay system: growth inhibition (cell count), Ba/F3 T315I cell line
Type: cell-based, murine
PARTICULARS: concentration inhibiting growth of the cell line by 50%, read-out: IC50 activity category, T315I

Input line: Return GI50 (reported value) for this molecule: O=C(Nc1cccc(C(F)(F)F)c1)c1cccc(/C=N/Nc2ncc(F)c(N3CCOCC3)n2)n1
Output line: > 10000 nM

Input line: Return GI50 (reported value) for this molecule: O=C(Nc1cccc(C(F)(F)F)c1)c1ccc(/C=N/Nc2ncc(F)c(N3CCOCC3)n2)nc1
Output line: < 1000 nM

Input line: Return GI50 (reported value) for this molecule: Cc1cc(Nc2ccc(/C=N/Nc3ncc(F)c(N4CCOCC4)n3)nc2)cc(N2CCNCC2)c1
Output line: < 1000 nM

Input line: Return GI50 (reported value) for this molecule: O=C(C/C=N/Nc1ncc(F)c(N2CCOCC2)n1)Nc1cccc(C(F)(F)F)c1
Output line: > 10000 nM

Input line: Return GI50 (reported value) for this molecule: Fc1cnc(N/N=C/c2ccccn2)nc1N1CCOCC1
Output line: < 1000 nM

Input line: Return GI50 (reported value) for this molecule: CN(C)c1cc(O)cc(Nc2ccc(/C=N/Nc3ncc(F)c(N4CCOCC4)n3)nc2)c1
Output line: < 1000 nM

Input line: Return GI50 (reported value) for this molecule: Oc1ccccc1/C=N/Nc1ncc(F)c(N2CCOCC2)n1
Output line: < 10000 nM

Input line: Return GI50 (reported value) for this molecule: Oc1ccc(Br)cc1/C=N/Nc1ncc(F)c(N2CCOCC2)n1
Output line: < 1000 nM

Input line: Return GI50 (reported value) for this molecule: Fc1cnc(N/N=C/c2ccc(-c3cccc(C(F)(F)F)c3)cn2)nc1N1CCOCC1
Output line: < 1000 nM

Input line: Return GI50 (reported value) for this molecule: Fc1cnc(N/N=C/c2ccc(Nc3ccc(-c4ccccn4)c(Cl)c3)cn2)nc1N1CCOCC1
Output line: < 1000 nM

Input line: Return GI50 (reported value) for this molecule: Fc1cnc(N/N=C/c2ccc(Nc3cccc(C(F)(F)F)c3)cn2)nc1-c1cncc(C2CC2)c1
Output line: < 10000 nM

Input line: Return GI50 (reported value) for this molecule: O=C(Nc1cccc(C(F)(F)F)c1)c1cc(Cl)c(O)c(/C=N\Nc2ncc(F)c(N3CCOCC3)n2)c1
Output line: < 1000 nM

Input line: Return GI50 (reported value) for this molecule: O=C(NNc1ncc(F)c(N2CCOCC2)n1)c1ccc(Nc2cccc(C(F)(F)F)c2)cn1
Output line: < 1000 nM

Input line: Return GI50 (reported value) for this molecule: Fc1cnc(N/N=C/c2ccc(Nc3cccc(-n4ccnc4)c3)cn2)nc1N1CCOCC1
Output line: < 1000 nM

Input line: Return GI50 (reported value) for this molecule: Cc1cccc(Cl)c1NC(=O)C/C=N/Nc1ncc(F)c(N2CCOCC2)n1
Output line: > 10000 nM

Input line: Return GI50 (reported value) for this molecule: Fc1cnc(N/N=C/c2ccc(Nc3ccc(N4CCOCC4)cc3)cn2)nc1N1CCOCC1
Output line: < 1000 nM

Input line: Return GI50 (reported value) for this molecule: Cc1ccccc1/C=N/Nc1ncc(F)c(N2CCOCC2)n1
Output line: > 10000 nM

Input line: Return GI50 (reported value) for this molecule: CC(C(=O)O)c1ccc(Nc2ccc(/C=N/Nc3ncc(F)c(N4CCOCC4)n3)nc2)cc1 (stereo not drawn)
Output line: > 10000 nM
